Molecular target: Human GPR120 short form (Homo sapiens, UniProt Q5NUL3)
Construct: expressed in transfected cells
Assay: Human GPR120 calcium flux assay, Procedure Calcium B (4200 cells/well)
Assay type: cell-based
Could you please mark 1.0 for values of EC50 below 200 nM and 0.0 for values at or above it?

Does `[2H]C([2H])([2H])c1ccc(C2=C(COc3ccc(CCC(=O)O)c(Cl)c3)CCC2)cc1` have EC50 strictly under 200 nM?
1.0

Moving on to `O=C(O)CCc1ccc(OCC2=C(Cc3ccccc3)CC(F)(F)C2)cc1C(F)(F)F`
0.0

Moving on to CC1CCC(COc2ccc(CCC(=O)O)c(Cl)c2)=C1c1ccc(Cl)cc1 (centres unmarked)
0.0

Moving on to `O=C(O)CCc1cc(F)c(OCC2=C(c3ccc(Cl)cc3)CCCC2)c(F)c1`
1.0

Moving on to `O=C(O)CCc1ccc(OCC2=C(C3CCCC3)CCCCC2)cc1C(F)(F)F`
0.0

Moving on to `Cc1cc(OCC2=C(C3CC3)CCC2)c(F)cc1CCC(=O)O`
0.0

Moving on to CC1CCC(c2ccccc2)=C1COc1ccc(CCC(=O)O)cc1 (centres unmarked)
0.0

Moving on to CC(Cc1ccc(OCC2=C(c3ccc(F)cc3)CCC2)c(F)c1)C(=O)O (centres unmarked)
0.0

* * *

Target: Human GPR120 short form (Homo sapiens, UniProt Q5NUL3)
Construct: expressed in transfected cells
Assay: Human GPR120 calcium flux assay, Procedure Calcium A (2500 cells/well)
Assay type: cell-based
propertyName: EC50

Worked set:
{"compound": "Cc1c(CCC(=O)O)ccc(OCC2=C(c3ccc(C#N)cc3)CCCC2)c1C [Compound 520]", "propertyName": "EC50", "assayValue": "2.36 µM"}
{"compound": "Cc1c(CCC(=O)O)ccc(OCC2=C(c3ccc(Cl)c(F)c3)CCC2)c1C [Compound 157]", "propertyName": "EC50", "assayValue": "0.097 µM"}
{"compound": "O=C(O)CCc1ccc(OCC2=C(c3ccc(Cl)cc3)CCC2O)c(F)c1F (stereo not shown) [Compound 45]", "propertyName": "EC50", "assayValue": "> 20 µM"}

Query compound follows.
Please give the measured EC50 for this compound: Cc1ccc(C2=C(COc3c(F)cc(CCC(=O)O)cc3F)CCCC2)cc1F [Compound 493]
0.123 µM

* * *

Biological target: Human GPR120 short form (Homo sapiens)
Construct: expressed in transfected cells
Sequence (Q5NUL3 1-361): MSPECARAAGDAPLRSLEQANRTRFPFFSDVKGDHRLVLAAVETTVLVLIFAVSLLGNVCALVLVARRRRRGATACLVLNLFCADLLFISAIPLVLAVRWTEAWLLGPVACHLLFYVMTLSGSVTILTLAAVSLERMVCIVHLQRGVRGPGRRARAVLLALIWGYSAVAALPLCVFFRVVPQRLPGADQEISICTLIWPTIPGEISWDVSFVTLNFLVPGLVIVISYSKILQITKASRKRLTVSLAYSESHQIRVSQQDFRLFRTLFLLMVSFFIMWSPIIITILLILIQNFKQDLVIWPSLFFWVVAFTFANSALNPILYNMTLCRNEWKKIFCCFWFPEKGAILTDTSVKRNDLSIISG
Assay: Human GPR120 calcium flux assay, Procedure Calcium B (4200 cells/well)
Type: cell-based
Could you please mark satisfied for values of EC50 below 400 nM and not satisfied for values at or above it?

Use the examples below as a reference point.
{"molecule": "Cc1ccc(C2=C(COc3c(F)cc(CCC(=O)O)cc3F)CC(F)(F)CC2)cc1F [Compound 525]", "studyTarget": "Human GPR120 short form (Homo sapiens)", "assignedCategory": "satisfied"}
{"molecule": "Cc1ncc(C2=C(COc3ccc(CCC(=O)O)cc3C)CC(F)(F)CC2)s1 [Compound 550]", "studyTarget": "Human GPR120 short form (Homo sapiens)", "assignedCategory": "not satisfied"}
{"molecule": "O=C(O)CCc1cc(F)c(OCC2=C(C3CCCC3)CCC2)c(F)c1 [Compound 436]", "studyTarget": "Human GPR120 short form (Homo sapiens)", "assignedCategory": "satisfied"}
{"molecule": "CCC1CCC(COc2ccc(CCC(=O)O)c(C)c2C)=C(c2ccc(Cl)cc2)C1 (centres unmarked) [Compound 522]", "studyTarget": "Human GPR120 short form (Homo sapiens)", "assignedCategory": "not satisfied"}
{"molecule": "Cc1ccc(C2=C(COc3ccc(CCC(=O)O)c(F)c3F)CCC2)cc1 [Compound 94]", "studyTarget": "Human GPR120 short form (Homo sapiens)", "assignedCategory": "satisfied"}
{"molecule": "O=C(O)CCc1ccc(OCC2=C(c3ccc(Cl)c(F)c3)CCC2)cc1C(F)(F)F [Compound 284]", "studyTarget": "Human GPR120 short form (Homo sapiens)", "assignedCategory": "not satisfied"}

Does O=C(O)CCc1ccc(OCC2=C(Cc3ccccc3)CCCC2)cc1C(F)(F)F [Compound 584] have EC50 strictly under 400 nM?
not satisfied

* * *

Biological target: human GPR40 (Homo sapiens, UniProt O14842)
Sequence (O14842 whole entry): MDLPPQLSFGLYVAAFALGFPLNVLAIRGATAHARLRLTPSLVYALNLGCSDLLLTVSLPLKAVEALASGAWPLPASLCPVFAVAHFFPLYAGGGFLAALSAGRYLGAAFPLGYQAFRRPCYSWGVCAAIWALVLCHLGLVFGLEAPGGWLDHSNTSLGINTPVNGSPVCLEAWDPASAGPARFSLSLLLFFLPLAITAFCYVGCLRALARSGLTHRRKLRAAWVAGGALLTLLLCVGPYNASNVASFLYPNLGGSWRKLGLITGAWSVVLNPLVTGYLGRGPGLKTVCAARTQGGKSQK
Assay: GPR40 calcium flux assay, human GPR40
Details: HEK293 cells stably expressing GPR40; table does not say human or rat
propertyName: EC50 (nM)
All answers are understood in nM, so give the number only.

{"compound": "O=C(O)CCc1ccc(OCC2=C(c3ccc(Cl)cc3)CC(F)(F)C2)cc1Cl [Compound 251]", "EC50 / nM": 579}
{"compound": "Cc1cc(CCC(=O)O)ccc1OCC1=C(c2ccc(Cl)cc2)CC(F)(F)CC1 [Compound 566]", "EC50 / nM": 3340}
{"compound": "CCCCC1=C(COc2ccc(CCC(=O)O)c(C(F)(F)F)c2)CCC1 [Compound 370]", "EC50 / nM": 133}

Please give the measured EC50 for this compound: Cc1cc(CCC(=O)O)ccc1OCC1=C(c2ccc(Cl)cc2)CC(F)(F)C1 [Compound 166]
4000

Moving on to O=C(O)CCc1ccc(OCC2=C(C3CCC4CC43)CCC2)cc1 (centres unmarked) [Compound 455]
403

* * *

Listing: EC50 of selected compounds
Molecular target: human GPR40 (Homo sapiens)
Construct: expressed in transfected cells
Test: GPR40 calcium flux assay, human GPR40
Format: cell-based
Details: HEK293 cells stably expressing GPR40; table does not say human or rat
Protocol: Compounds were tested in a calcium flux assay using transfected HEK293 cells stably expressing either human GPR40 or rat GPR40. […] On the day of the experiment, the culture media was replaced with assay buffer (HBSS, 20 mM HEPES, 0.1% BSA) and the cells incubated at 37° C. for 1 h. […] The cell plate and a plate of diluted compounds of Formula (I) were loaded into a fluorescent plate reader that added compounds onto the cells while measuring the fluorescence intensity of each well. […]

{"compound": "O=C(O)CCc1ccc(OCC2=C(c3ccc(Cl)cc3)CCC2)c(Cl)c1Cl [Compound 99]", "assayValue": "> 5000 nM"}
{"compound": "O=C(O)CCc1ccc(OCC2=C(Cc3cccc(F)c3)CCC2)cc1Cl [Compound 362]", "assayValue": "159 nM"}
{"compound": "Cc1ccc(C2=C(COc3ccc(CCC(=O)O)c(C)c3C)CCC2)cc1F [Compound 80]", "assayValue": "> 5000 nM"}
{"compound": "O=C(O)CCc1cc(F)c(OCC2=C(C3CCCC3)CCC2)cc1Cl [Compound 450]", "assayValue": "118 nM"}

Please give the measured EC50 for this compound: Cc1cc(OCC2=C(c3ccc(Cl)cc3C)CCC2)c(F)cc1CCC(=O)O [Compound 286]
245 nM

Moving on to CC(Cc1cc(F)c(OCC2=C(c3ccc(Cl)cc3)CCC2)c(F)c1)C(=O)O (centres unmarked) [Compound 144]
> 5000 nM

Moving on to O=C(O)CCc1ccc(OCC2=C(c3ccc(F)cc3)CCC(F)(F)C2)cc1C(F)(F)F [Compound 489]
825 nM

Moving on to Cc1ccc(C2=C(COc3c(F)cc(CCC(=O)O)cc3F)CCC2)cc1[N+](=O)[O-] [Compound 109]
> 5000 nM

* * *

Molecular target: Human GPR120 short form (Homo sapiens, UniProt Q5NUL3)
Construct: expressed in transfected cells
Experiment: Human GPR120 calcium flux assay, Procedure Calcium B (4200 cells/well)
Format: cell-based
propertyName: pEC50
Expect pEC50 as a plain number equal to -log10 of the molar concentration.

{"molecule": "O=C(O)CCc1ccc(OCC2=C(c3ccc(Cl)cc3)CCC2)cc1C(F)(F)C(F)(F)F [Compound 89]", "pEC50": 5.85}
{"molecule": "O=C(O)CCc1ccc(OCC2=C(Cc3cncs3)CCCC2)cc1Cl [Compound 595]", "pEC50": 5.96}

Please give the measured pEC50 for this molecule: Cc1c(CCC(=O)O)ccc(OCC2=C(c3ccc(Cl)cc3)CCC2=O)c1C [Compound 145]
5.70

Moving on to O=C(O)CCc1ccc(OCC2=C(c3ccccc3Cl)CCC2)cc1C(F)(F)F [Compound 313]
6.07

Moving on to Cc1c(CCC(=O)O)ccc(OCC2=C(c3ccc(Cl)cc3)CC(Cl)C2)c1C (stereo not drawn) [Compound 195]
6.64
